assay_summary: Retention time of the compound in 50 to 100% ACN/Water/0.1%TFA by RP-HPLC analysis
Format: physicochemical
measurement_setup: buffer
readout_name: Retention_time (min)
The answer is to be given in min; state only the numeric part.

Would you kindly share the measured Retention_time for O=C(O)/C(Cc1ccc(O)c([N+](=O)[O-])c1)=N/Nc1nc(-c2ccc(Cl)c(Cl)c2)cs1 ? 7.82

Again, but for O=C(O)/C(Cc1ccccc1[N+](=O)[O-])=N\Nc1nc(-c2ccc(C3CCCCC3)cc2)cs1 11.636

Another: O=C(O)/C(Cc1ccc(Cl)c([N+](=O)[O-])c1)=N/Nc1nc(-c2ccc(Cl)c(Cl)c2)cs1 9.437
